Where do the numbers come from? From PubChem BioAssay (EPA / NIEHS).

read-out: Vascular cell adhesion molecule 1 (VCAM1), VCAM1 (gene 7412); assay: BSK_4H_VCAM1: BioMAP Diversity Plus: 4H Assay for Vascular cell adhesion molecule 1 (VCAM1) Biomarker Activity (AID 2283033); settings: primary human endothelial cells (HUVEC); actives raise or lower the signal;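 further: cell-surface VCAM-1 protein measured by ELISA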
Calls of active or inactive are those of the source. How the source made its calls: active means hit-call score of the fitted dose curve at least 0.9, where 1 is the maximum; inactive means score below 0.9.
Just give me one of these, please: T for active, F for inactive

Dear colleague, could you share the recorded outcome for IC(I)I when you have a moment?
F

====

read-out: Monokine induced gamma interferon (MIG), CXCL9 (gene 4283); test: BSK_SAg_MIG: BioMAP Diversity Plus: SAg Assay for Monokine induced gamma interferon (MIG) Biomarker Activity (AID 2283092); settings: primary human HUVEC with PBMC; actives raise or lower the signal
Active and inactive are the calls of the source. The calls were made as follows: active = hit-call score of the fitted dose curve at least 0.9, where 1 is the maximum; inactive = score below 0.9.
# valid calls are 1 for active, -1 for inactive; nothing else

Solved cases (5 shown):
[[record]]
molecule = "Clc1cc(Cl)c(-c2c(Cl)c(Cl)cc(Cl)c2Cl)cc1Cl"
category_label = -1

[[record]]
molecule = "CC(C=O)Cc1ccc(C(C)(C)C)cc1 (stereo unspecified)"
category_label = -1

[[record]]
molecule = "CCN(CC)C(=O)N(CC)CC"
category_label = -1

[[record]]
molecule = "C=C(C)C(=O)OCCOCCOCCOCCOC(=O)C(=C)C"
category_label = -1

[[record]]
molecule = "CCC(C)c1cc([N+](=O)[O-])cc([N+](=O)[O-])c1OC(=O)OC(C)C (stereo unspecified)"
category_label = 1


Call for entry CSCCC=O :
-1

Lab log entry: CCCCOC(=O)CCCCCCCC(=O)OCCCC — outcome as called in the assay?
-1

I'd appreciate the recorded outcome for O=C(Nc1ccc2c(O)c(N=Nc3ccc(N=Nc4ccc(S(=O)(=O)O)cc4)cc3)c(S(=O)(=O)O)cc2c1)c1ccccc1 from this test.
-1

====

read-out: Tissue Factor, F3 (gene 2152); assay: BSK_LPS_TissueFactor: BioMAP Diversity Plus: LPS Assay for Tissue Factor Biomarker Activity (AID 2283084); details: primary human HUVEC with PBMC; actives raise or lower the signal
Calls of active or inactive are those of the source. How the source made its calls: active means hit-call score of the fitted dose curve at least 0.9, where 1 is the maximum; inactive means score below 0.9.
Form entry, call: pick from active, inactive

# example entries with known answers
[[record]]
compound = "CCCCCCCCCCCCCCCC(=O)OC/C=C(C)/C=C/C=C(C)/C=C/C1=C(C)CCCC1(C)C"
category_label = "inactive"

[[record]]
compound = "c1ccc2cc(Nc3ccc(Nc4ccc5ccccc5c4)cc3)ccc2c1"
category_label = "inactive"

[[record]]
compound = "CC(C=O)Cc1ccc(C(C)(C)C)cc1 (stereo not drawn)"
category_label = "inactive"


Just curious, what result did C=C(C)C(=O)OCCOCCOCCOC(=O)C(=C)C get here?
inactive

Called result for C=C(C)C(=O)OCCOCCOCCOCCOC(=O)C(=C)C
inactive

Called result for O=C1OC2(c3ccccc31)c1ccc(O)c(Br)c1Oc1c2ccc(O)c1Br
active

Call for entry CCCCOC(=O)CCCCCCCC(=O)OCCCC :
inactive

What call does the record list for CN(C)C(=S)SC(=S)N(C)C ?
inactive

For CC1(C)C2=CCCC(C)(C)[C@]23CC[C@H]1C3 , which call appears in the assay record?
inactive

====

Biological target: Heat shock factor protein 1 (Homo sapiens) (UniProt Q00613)
Sequence (Q00613 whole entry, looked up): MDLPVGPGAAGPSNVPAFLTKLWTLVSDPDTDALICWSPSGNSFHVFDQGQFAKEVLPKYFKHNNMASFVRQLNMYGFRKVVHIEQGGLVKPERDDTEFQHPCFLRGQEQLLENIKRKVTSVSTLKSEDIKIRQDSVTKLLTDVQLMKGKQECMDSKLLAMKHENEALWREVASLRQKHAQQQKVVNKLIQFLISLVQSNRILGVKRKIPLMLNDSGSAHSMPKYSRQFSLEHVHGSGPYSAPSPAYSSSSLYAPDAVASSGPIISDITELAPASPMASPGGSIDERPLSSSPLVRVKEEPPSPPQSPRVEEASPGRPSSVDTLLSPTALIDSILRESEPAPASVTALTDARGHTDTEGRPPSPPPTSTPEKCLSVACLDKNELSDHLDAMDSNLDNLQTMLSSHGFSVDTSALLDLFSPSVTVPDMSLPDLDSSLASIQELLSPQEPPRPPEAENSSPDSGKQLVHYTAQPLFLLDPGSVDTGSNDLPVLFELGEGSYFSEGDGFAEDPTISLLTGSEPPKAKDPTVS
Experiment: ATG_HSE_CIS: Attagene CIS-FACTORIAL HepG2 Assay for human Heat Shock Transcription Factor 1 (HSE) (AID 2282953)
Settings: HepG2 HSE cis-reporter, Attagene RNA transcription; actives raise or lower the signal
Method: ATG_CIS is a cell-based, multiplexed-readout assay that uses HepG2, a human liver cell line, with measurements taken at 24 hours after chemical dosing in a 24-well plate.ATG_HSE_CIS is one of 52 assay component(s) measured or calculated from the ATG_CIS assay. […] This assay endpoint, ATG_HSE_CIS, was analyzed with bidirectional fitting relative to DMSO as the negative control and baseline of activity. […]
The source made the active and inactive calls. How the source made its calls: active means hit-call score of the fitted dose curve at least 0.9, where 1 is the maximum; inactive means score below 0.9.
metric name: outcome

[[record]]
smiles_representation = "OC[C@H]1O[C@@H]2O[C@H]3[C@H](O)[C@@H](O)[C@@H](O[C@H]4[C@H](O)[C@@H](O)[C@@H](O[C@H]5[C@H](O)[C@@H](O)[C@@H](O[C@H]6[C@H](O)[C@@H](O)[C@@H](O[C@H]7[C@H](O)[C@@H](O)[C@@H](O[C@H]8[C@H](O)[C@@H](O)[C@@H](O[C@H]9[C@H](O)[C@@H](O)[C@@H](O[C@H]1[C@H](O)[C@H]2O)O[C@@H]9CO)O[C@@H]8CO)O[C@@H]7CO)O[C@@H]6CO)O[C@@H]5CO)O[C@@H]4CO)O[C@@H]3CO"
target_or_test_system = "Heat shock factor protein 1 (Homo sapiens) (UniProt Q00613)"
recorded_value = "inactive"

[[record]]
smiles_representation = "CCc1ccc(O)cc1"
target_or_test_system = "Heat shock factor protein 1 (Homo sapiens) (UniProt Q00613)"
recorded_value = "inactive"


====

Target: X-box-binding protein 1 (Homo sapiens) (UniProt P17861)
Sequence (P17861 whole entry, looked up): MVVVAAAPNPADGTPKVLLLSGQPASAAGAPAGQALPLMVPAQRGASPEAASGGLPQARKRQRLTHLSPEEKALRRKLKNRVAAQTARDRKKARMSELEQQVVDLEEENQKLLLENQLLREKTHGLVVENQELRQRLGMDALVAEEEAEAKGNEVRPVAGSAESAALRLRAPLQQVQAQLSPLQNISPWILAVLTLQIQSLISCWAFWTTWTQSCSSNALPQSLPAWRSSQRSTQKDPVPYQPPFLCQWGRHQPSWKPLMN
Assay: ATG_Xbp1_CIS: Attagene CIS-FACTORIAL HepG2 Assay for human X-box Binding Protein 1 (XBP1) (AID 2282972)
Details: HepG2 XBP1 cis-element reporter, Attagene multiplex; actives raise or lower the signal
Procedure: ATG_CIS is a cell-based, multiplexed-readout assay that uses HepG2, a human liver cell line, with measurements taken at 24 hours after chemical dosing in a 24-well plate.ATG_Xbp1_CIS is one of 52 assay component(s) measured or calculated from the ATG_CIS assay. […] This assay endpoint, ATG_Xbp1_CIS, was analyzed with bidirectional fitting relative to DMSO as the negative control and baseline of activity. […]
The source made the active and inactive calls. Rule for the calls: active = hit-call score of the fitted dose curve at least 0.9, where 1 is the maximum; inactive = score below 0.9.
// classify into true (1) = active, false (0) = inactive

Solved cases below.
[[record]]
compound = "O=C(O)c1ccc(O)cc1"
category_label = "false (0)"

[[record]]
compound = "C1=CC2C3C=CC(C3)C2C1 (centres undefined)"
category_label = "false (0)"


Entry CCOCCOCCOCC : call = ?
false (0)

Please share the test call associated with Nc1ccc(N)c2c1C(=O)c1ccccc1C2=O .
true (1)

Recorded test call requested for CC(=O)c1c(C)c([N+](=O)[O-])c(C(C)(C)C)c([N+](=O)[O-])c1C
false (0)

Hi, do you know how CC(=O)C1(C)CC2=C(CCCC2(C)C)CC1C (centres undefined) came out in this test?
false (0)

Assay outcome for CCCSc1ccc2nc(NC(=O)OC)[nH]c2c1 : what was it?
false (0)

Query: recorded result category for CC(Oc1cc(Cl)ccc1Cl)C(=O)O (centres undefined) in this test
false (0)

Please let me know the test result on file for O=c1[nH]c(=O)c2cn[nH]c2[nH]1 .
false (0)

Status in this test for NCc1ccco1 ?
false (0)

Record request — test call for CC(C)c1ccccc1O
false (0)

Short answer needed: outcome of this test for C=C(C)[C@@H]1CC=C(C)C(=O)C1 ?
false (0)

In this assay, the call recorded for O=C(O)c1cc(C(=O)O)cc([N+](=O)[O-])c1 was what?
false (0)

State the result this test recorded for CC(C=O)Cc1ccc(C(C)(C)C)cc1 (centres undefined) .
false (0)

====

assay: ACEA_ER_AUC_viability: ACEA Biosciences xCELLigence Real-Time Cell Analysis on Estrogen Receptor Agonism for Viability (AID 2283782);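 further: continuous compound exposure with impedance area under curve over 80 h; hit means loss of impedance signal meaning reduced cell growth or viability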
Results filed as inconclusive are left out. The source made the active and inactive calls. The calls were made as follows: active = hit-call score of the fitted dose curve at least 0.9, where 1 is the maximum; inconclusive = response in the unintended direction; inactive = score below 0.9.
Form entry, call: pick from active, inactive

Use these answered entries as a reference point.
[[record]]
compound = "CC(C)CCCCCCc1ccc(OCCOCCO)cc1"
category_label = "inactive"

[[record]]
compound = "COC(=O)C=C(C)CCC=C(C)C"
category_label = "inactive"

[[record]]
compound = "C=C1C[C@]23C[C@@]1(O)CC[C@H]2[C@@]12C=C[C@H](O)[C@@](C)(C(=O)O1)[C@H]2[C@@H]3C(=O)O"
category_label = "inactive"

[[record]]
compound = "C=C(C)C1CC=C(C)C(=O)C1 (stereo not drawn)"
category_label = "active"

[[record]]
compound = "CC(=O)O[C@H]1C[C@@H]2CC[C@@]1(C)C2(C)C"
category_label = "inactive"

[[record]]
compound = "Cc1cc(CCC(=O)OCCOCCOCCOC(=O)CCc2cc(C)c(O)c(C(C)(C)C)c2)cc(C(C)(C)C)c1O"
category_label = "inactive"

[[record]]
compound = "C=C[Si]1(C)O[Si](C)(C=C)O[Si](C)(C=C)O[Si](C)(C=C)O1 (stereo not drawn)"
category_label = "active"

[[record]]
compound = "C=CCN(CC=C)CC=C"
category_label = "active"

[[record]]
compound = "Nc1ccc2c(O)cc(S(=O)(=O)O)cc2c1"
category_label = "inactive"

[[record]]
compound = "Cc1cc(=O)oc2cc(N(C)C)ccc12"
category_label = "inactive"


I would be grateful if you could indicate the recorded call for CCCCCCC(C)(C)S .
inactive

Check the results log: what was the call for NC(=S)NNC(N)=S ?
inactive

Identify the outcome logged in this assay for the compound shown: CCOC(=O)CC(C)O (stereo not drawn)
inactive

Fill in: this test's call for CN1CCOCC1 is ___
inactive

Lab log entry: Nc1ccc(Cl)c([N+](=O)[O-])c1 — outcome as called in the assay?
inactive

For this compound, state the assay outcome: C=CC(=C)CCCC(C)(C)OC(C)=O
inactive
